Numbers sourced from patent US8163901B2.

Target: hVR1 (Homo sapiens, UniProt Q8NER1)
Construct: R710-07 (T-REx host cell line); host or cells: T-REx System cell line, called 'human keratinocyte cell line' and 'HEK 293 cells'
Sequence (Q8NER1 whole entry): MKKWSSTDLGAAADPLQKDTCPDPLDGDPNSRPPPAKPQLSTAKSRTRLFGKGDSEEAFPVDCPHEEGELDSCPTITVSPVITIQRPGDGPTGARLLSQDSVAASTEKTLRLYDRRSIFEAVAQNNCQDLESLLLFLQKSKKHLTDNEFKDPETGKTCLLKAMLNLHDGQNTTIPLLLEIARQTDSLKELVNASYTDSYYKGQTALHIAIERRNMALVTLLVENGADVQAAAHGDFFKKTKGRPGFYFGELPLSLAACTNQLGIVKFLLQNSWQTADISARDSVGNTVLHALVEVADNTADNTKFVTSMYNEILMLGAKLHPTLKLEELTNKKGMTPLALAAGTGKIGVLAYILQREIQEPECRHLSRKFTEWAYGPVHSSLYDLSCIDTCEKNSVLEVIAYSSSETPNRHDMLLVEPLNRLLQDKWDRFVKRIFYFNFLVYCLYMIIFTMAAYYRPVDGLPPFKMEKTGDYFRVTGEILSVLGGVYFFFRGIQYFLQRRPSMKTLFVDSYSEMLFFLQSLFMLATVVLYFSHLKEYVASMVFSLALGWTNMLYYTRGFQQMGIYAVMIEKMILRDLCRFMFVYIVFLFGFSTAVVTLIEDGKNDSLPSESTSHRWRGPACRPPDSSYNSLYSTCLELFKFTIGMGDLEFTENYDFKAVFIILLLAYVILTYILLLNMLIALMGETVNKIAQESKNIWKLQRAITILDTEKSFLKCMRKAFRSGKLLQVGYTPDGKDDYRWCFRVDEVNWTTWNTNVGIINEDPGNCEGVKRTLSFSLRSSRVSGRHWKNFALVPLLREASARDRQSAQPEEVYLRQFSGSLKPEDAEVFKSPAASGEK
Assay: Calcium uptake assay (FLIPR), inhibition of low pH (proton)-induced calcium influx
Format: cell-based
Settings: agonist protons, low pH solution pH 5.7; cells expressing hVR1
measurement.label: IC50 (nM)

INSERT INTO results (compound, measurement) VALUES
  ('CC(NC(=O)C1CN(C)c2cc(C(F)(F)F)ccc2O1)c1ccc2[nH]ncc2c1 (mixture of isomers) [Compound 9]', 117);

I = O=C(NCc1ccnc2ccccc12)C1=Cc2cc(Br)ccc2OC1 [Compound 3]
II = C[C@@H](NC(=O)[C@@H]1CCc2nc(C(C)(C)C(F)(F)F)ccc2C1)c1ccc2[nH]ncc2c1 [Compound 11]
III = CC(C)(c1ccc2c(n1)CC[C@@H](C(=O)Nc1cnc3ccccc3c1)C2)C(F)(F)F [Compound 21]
Asked: Please produce an ascending ranking of these compounds based on IC50. Answer with the labels in sequence, matching the requested order.
Given back: II, III, I
